B1: LINE1-full (parent)
chain: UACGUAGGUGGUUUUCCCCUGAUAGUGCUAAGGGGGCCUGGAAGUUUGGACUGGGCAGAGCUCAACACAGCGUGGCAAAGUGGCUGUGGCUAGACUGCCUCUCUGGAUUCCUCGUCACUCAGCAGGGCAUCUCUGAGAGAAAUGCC

Variants of: B1
Protocol Description: self-cleavage, relative activity (ratio to wild type); higher = more cleavage; in vitro, sequencing; the parent is a self-cleaving ribozyme
Reported Metric: self-cleavage

Please review the entries below; each comes with its answer.
INSERT INTO results (variant, obs_value) VALUES
  ('A140G A142C', 1.4),
  ('A79U U109G', 1.1);

// next entry
# return recorded self-cleavage for entry A59G C146U
0.12
